Recorded inhibition by entry
- ASSAY_SYSTEM: Dihydrofolate reductase (Homo sapiens)
- Sequence (whole entry): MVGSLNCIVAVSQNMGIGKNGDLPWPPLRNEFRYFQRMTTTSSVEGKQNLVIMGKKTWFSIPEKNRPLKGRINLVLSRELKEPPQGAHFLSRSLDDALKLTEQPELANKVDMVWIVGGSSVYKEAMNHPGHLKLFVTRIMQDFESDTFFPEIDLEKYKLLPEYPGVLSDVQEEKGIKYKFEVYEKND
- ASSAY_DETAILS: Inhibition of human DHFR receptor at 10 uM
RECORDED_ENDPOINT: inhibition (%)

compound=CCc1nc(N)nc(N)c1-c1ccc(NCc2ccc(S(C)(=O)=O)cc2)cc1 result_units=% modifier=> experimental_value=99
compound=CC(C)(C)c1nc(N)nc(N)c1-c1ccc(NCc2ccc(S(C)(=O)=O)cc2)cc1 result_units=% modifier== experimental_value=87
compound="CS(=O)(=O)c1ccc(CNc2ccc(-c3c(N)nc(N)nc3C3CC4CCC3C4)cc2)cc1 (stereo not given)" result_units=% modifier== experimental_value=21
compound=CC(C)CCOCc1nc(N)nc(N)c1-c1ccc(NCc2ccc(S(C)(=O)=O)cc2)cc1 result_units=% modifier== experimental_value=97
compound=CS(=O)(=O)c1ccc(CNc2ccc(-c3c(N)nc(N)nc3C3CCCC3)cc2)cc1 result_units=% modifier== experimental_value=97

====

- ASSAY_SYSTEM: Growth hormone secretagogue receptor type 1 (Homo sapiens)
- ASSAY_DETAILS: Inhibition of human GHS receptor by FLIPR
- Type: functional
RECORDED_ENDPOINT: IC50 (nM)

smiles_input=CS(=O)(=O)c1ccc(CNc2ccc(-c3c(N)nc(N)nc3C3CCC3)cc2)cc1 result_units=nM modifier== experimental_value=14
smiles_input=CS(=O)(=O)c1ccc(CNc2ccc(-c3c(N)nc(N)nc3CNCc3ccccc3)cc2)cc1 result_units=nM modifier== experimental_value=49
smiles_input=CCOC(=O)CCc1nc(N)nc(N)c1-c1ccc(NCc2ccc(S(C)(=O)=O)cc2)cc1 result_units=nM modifier== experimental_value=82
smiles_input=Cc1cc(C)cc(CNC(=O)CCc2nc(N)nc(N)c2-c2ccc(NCc3ccc(S(C)(=O)=O)cc3)cc2)c1 result_units=nM modifier== experimental_value=3
smiles_input=CS(=O)(=O)c1ccc(CNc2ccc(-c3c(N)nc(N)nc3C3CCCCC3)cc2)cc1 result_units=nM modifier== experimental_value=36
smiles_input=CCc1nc(N)nc(NC2CC2)c1-c1ccc(NCc2ccc(S(C)(=O)=O)cc2)cc1 result_units=nM modifier=> experimental_value=10000
smiles_input=CCCCNc1nc(N)nc(CC)c1-c1ccc(NCc2ccc(S(C)(=O)=O)cc2)cc1 result_units=nM modifier== experimental_value=736
smiles_input=CN(Cc1nc(N)nc(N)c1-c1ccc(NCc2ccc(S(C)(=O)=O)cc2)cc1)c1ccc(F)cc1 result_units=nM modifier== experimental_value=10
smiles_input=CS(=O)(=O)c1ccc(CNc2ccc(-c3c(N)nc(N)nc3CN3CCc4ccccc4C3)cc2)cc1 result_units=nM modifier== experimental_value=41

====

- ASSAY_SYSTEM: Growth hormone secretagogue receptor type 1 (Homo sapiens)
- ASSAY_DETAILS: Inhibition of human GHS receptor by FLIPR
- Assay type: functional
pIC50: −log10 of the molar value.
Could you label it class 1 if measured pIC50 is 7 or higher, and class 0 otherwise?

smiles_input=CS(=O)(=O)c1ccc(CNc2ccc(-c3c(N)nc(N)nc3CNC3CC3)cc2)cc1 cat="class 0"
smiles_input=CCc1nc(N)nc(Nc2ccccc2)c1-c1ccc(NCc2ccc(S(C)(=O)=O)cc2)cc1 cat="class 0"
smiles_input=CCCNc1nc(N)nc(CC)c1-c1ccc(NCc2ccc(S(C)(=O)=O)cc2)cc1 cat="class 0"
smiles_input=CS(=O)(=O)c1ccc(CNc2ccc(-c3c(N)nc(N)nc3CN3CCc4ccccc43)cc2)cc1 cat="class 1"
smiles_input=CN(Cc1nc(N)nc(N)c1-c1ccc(NCc2ccc(S(C)(=O)=O)cc2)cc1)c1ccccc1 cat="class 1"
smiles_input=CCc1nc(N)nc(N2CCOCC2)c1-c1ccc(NCc2ccc(S(C)(=O)=O)cc2)cc1 cat="class 0"
smiles_input=CS(=O)(=O)c1ccc(CNc2ccc(-c3c(N)nc(N)nc3CN3Cc4ccccc4C3)cc2)cc1 cat="class 1"

====

- ASSAY_SYSTEM: Growth hormone secretagogue receptor type 1 (Homo sapiens)
- ASSAY_DETAILS: Inhibition of human GHS receptor by binding assay
Doc: threshold 200 nM (exclusive). Items with IC50 beneath it return satisfied; others return not satisfied.

smiles_input=CC(C)CCNCc1nc(N)nc(N)c1-c1ccc(NCc2ccc(S(C)(=O)=O)cc2)cc1 cat=satisfied
smiles_input=CS(=O)(=O)c1ccc(CNc2ccc(-c3c(N)nc(N)nc3CNc3ccccc3)cc2)cc1 cat=satisfied
smiles_input=CS(=O)(=O)c1ccc(CNc2ccc(-c3c(N)nc(N)nc3CNC3CC3)cc2)cc1 cat=satisfied
smiles_input=CS(=O)(=O)c1ccc(CNc2ccc(-c3c(N)nc(N)nc3CNC3CCCC3)cc2)cc1 cat=satisfied
smiles_input=CCc1nc(N)nc(N2CCOCC2)c1-c1ccc(NCc2ccc(S(C)(=O)=O)cc2)cc1 cat="not satisfied"
smiles_input=COCc1nc(N)nc(N)c1-c1ccc(NCc2ccc(S(C)(=O)=O)cc2)cc1 cat=satisfied
smiles_input=CCc1nc(N)nc(NCc2ccccc2)c1-c1ccc(NCc2ccc(S(C)(=O)=O)cc2)cc1 cat="not satisfied"
smiles_input=CCCCc1nc(N)nc(N)c1-c1ccc(NCc2ccc(S(C)(=O)=O)cc2)cc1 cat=satisfied
smiles_input=CCc1nc(N)nc(Nc2ccccc2)c1-c1ccc(NCc2ccc(S(C)(=O)=O)cc2)cc1 cat="not satisfied"

====

Form field: log10(IC50) (one value per entry).
- ASSAY_SYSTEM: Growth hormone secretagogue receptor type 1 (Homo sapiens)
- ASSAY_DETAILS: Inhibition of human GHS receptor by binding assay
RECORDED_ENDPOINT: log10(IC50) (log10 of the value in nM)

smiles_input=CCCCNc1nc(N)nc(CC)c1-c1ccc(NCc2ccc(S(C)(=O)=O)cc2)cc1 experimental_value=2.44
smiles_input=CC(C)CCOCc1nc(N)nc(N)c1-c1ccc(NCc2ccc(S(C)(=O)=O)cc2)cc1 experimental_value=0.45
smiles_input=CCc1nc(N)nc(NC2CC2)c1-c1ccc(NCc2ccc(S(C)(=O)=O)cc2)cc1 experimental_value=2.78
smiles_input=CS(=O)(=O)c1ccc(CNc2ccc(-c3c(N)nc(N)nc3CN)cc2)cc1 experimental_value=2.80
smiles_input=CS(=O)(=O)c1ccc(CNc2ccc(-c3c(N)nc(N)nc3COCc3ccccc3)cc2)cc1 experimental_value=-0.52
smiles_input=CCCCCCCc1nc(N)nc(N)c1-c1ccc(NCc2ccc(S(C)(=O)=O)cc2)cc1 experimental_value=0.78
smiles_input=CN(C)Cc1nc(N)nc(N)c1-c1ccc(NCc2ccc(S(C)(=O)=O)cc2)cc1 experimental_value=2.27
smiles_input=CS(=O)(=O)c1ccc(CNc2ccc(-c3c(N)nc(N)nc3CNCC3CCCC3)cc2)cc1 experimental_value=1.20
smiles_input=CCCCCCc1nc(N)nc(N)c1-c1ccc(NCc2ccc(S(C)(=O)=O)cc2)cc1 experimental_value=0.78

====

- ASSAY_SYSTEM: Growth hormone secretagogue receptor type 1 (Homo sapiens, UniProt Q92847)
- Sequence (Q92847 whole entry): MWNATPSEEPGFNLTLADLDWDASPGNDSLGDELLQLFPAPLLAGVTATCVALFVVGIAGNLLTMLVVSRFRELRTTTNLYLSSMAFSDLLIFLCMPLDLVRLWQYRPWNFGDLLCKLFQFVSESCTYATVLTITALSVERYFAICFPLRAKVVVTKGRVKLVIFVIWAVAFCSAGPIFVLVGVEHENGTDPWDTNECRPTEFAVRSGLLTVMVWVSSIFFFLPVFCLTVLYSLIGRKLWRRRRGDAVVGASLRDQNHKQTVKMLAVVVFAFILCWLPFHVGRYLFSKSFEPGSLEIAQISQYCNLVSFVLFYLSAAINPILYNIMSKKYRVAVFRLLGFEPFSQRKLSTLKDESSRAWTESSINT
- ASSAY_DETAILS: Inhibition of human GHS receptor by binding assay
Catalogue of log10 of IC50 values
RECORDED_ENDPOINT: log10 of IC50 (log10 of the value in nM)

smiles_input=Cc1cc(C)cc(CNC(=O)CCc2nc(N)nc(N)c2-c2ccc(NCc3ccc(S(C)(=O)=O)cc3)cc2)c1 experimental_value=-0.40
smiles_input=CCc1nc(N)nc(NCC(C)C)c1-c1ccc(NCc2ccc(S(C)(=O)=O)cc2)cc1 experimental_value=2.30
smiles_input=CCNc1nc(N)nc(CC)c1-c1ccc(NCc2ccc(S(C)(=O)=O)cc2)cc1 experimental_value=2.39
smiles_input=CC(C)=CCOCc1nc(N)nc(N)c1-c1ccc(NCc2ccc(S(C)(=O)=O)cc2)cc1 experimental_value=-0.40
smiles_input=CNCc1nc(N)nc(N)c1-c1ccc(NCc2ccc(S(C)(=O)=O)cc2)cc1 experimental_value=2.45
smiles_input=CS(=O)(=O)c1ccc(CNc2ccc(-c3c(N)nc(N)nc3COCc3cccnc3)cc2)cc1 experimental_value=1.58

====

Quick reference for pIC50 among some compounds
- ASSAY_SYSTEM: Growth hormone secretagogue receptor type 1 (Homo sapiens)
- ASSAY_DETAILS: Inhibition of human GHS receptor by FLIPR
- Assay type: functional
pIC50: −log10 of the molar value.
RECORDED_ENDPOINT: pIC50

compound=CCNc1nc(N)nc(CC)c1-c1ccc(NCc2ccc(S(C)(=O)=O)cc2)cc1 modifier=< experimental_value=5.00
compound=COCc1nc(N)nc(N)c1-c1ccc(NCc2ccc(S(C)(=O)=O)cc2)cc1 modifier== experimental_value=7.28
compound=CCCCCCCCc1nc(N)nc(N)c1-c1ccc(NCc2ccc(S(C)(=O)=O)cc2)cc1 modifier== experimental_value=7.24
compound=CS(=O)(=O)c1ccc(CNc2ccc(-c3c(N)nc(N)nc3COCc3ccco3)cc2)cc1 modifier== experimental_value=8.02
compound="CS(=O)(=O)c1ccc(CNc2ccc(-c3c(N)nc(N)nc3[C@H]3CC4C=CC3C4)cc2)cc1 (some centres not stated)" modifier== experimental_value=7.18
compound=CC(C)=CCOCc1nc(N)nc(N)c1-c1ccc(NCc2ccc(S(C)(=O)=O)cc2)cc1 modifier== experimental_value=8.72
compound=CS(=O)(=O)c1ccc(CNc2ccc(-c3c(N)nc(N)nc3[C@@H]3CCCO3)cc2)cc1 modifier== experimental_value=7.27
compound=CS(=O)(=O)c1ccc(CNc2ccc(-c3c(N)nc(N)nc3[C@H]3CCCO3)cc2)cc1 modifier== experimental_value=7.24
compound=CC(C)CCNCc1nc(N)nc(N)c1-c1ccc(NCc2ccc(S(C)(=O)=O)cc2)cc1 modifier== experimental_value=5.85
compound=CS(=O)(=O)c1ccc(CNc2ccc(-c3c(N)nc(N)nc3CCC(=O)NCc3cccc(Cl)c3)cc2)cc1 modifier== experimental_value=8.27
compound=CS(=O)(=O)c1ccc(CNc2ccc(-c3c(N)nc(N)nc3CN)cc2)cc1 modifier== experimental_value=5.15
compound=CN(Cc1ccccc1)Cc1nc(N)nc(N)c1-c1ccc(NCc2ccc(S(C)(=O)=O)cc2)cc1 modifier== experimental_value=7.16
